Assay: PK evaluation in CD-1 mice (plasma, brain, kidney, liver; i.v. and oral)
Type: in vivo
Settings: male, CD-1, mouse; oral 5 mg/kg, brain; read-out: Cmax
READOUT LABEL: Cmax (ng/g)
Kindly answer with a numeric value in ng/g, unit omitted.

// field: Cmax; key: O=C1c2ccc(Cl)cc2N/C(=N/N=C/c2cc3ccccc3s2)[C@@H]2CCCN12 ; value = 602

====

Target: human CB1 receptors (Homo sapiens, UniProt P21554)
Construct: expressed in transfected cells; host or cells: CHO cells
Sequence (P21554 whole entry): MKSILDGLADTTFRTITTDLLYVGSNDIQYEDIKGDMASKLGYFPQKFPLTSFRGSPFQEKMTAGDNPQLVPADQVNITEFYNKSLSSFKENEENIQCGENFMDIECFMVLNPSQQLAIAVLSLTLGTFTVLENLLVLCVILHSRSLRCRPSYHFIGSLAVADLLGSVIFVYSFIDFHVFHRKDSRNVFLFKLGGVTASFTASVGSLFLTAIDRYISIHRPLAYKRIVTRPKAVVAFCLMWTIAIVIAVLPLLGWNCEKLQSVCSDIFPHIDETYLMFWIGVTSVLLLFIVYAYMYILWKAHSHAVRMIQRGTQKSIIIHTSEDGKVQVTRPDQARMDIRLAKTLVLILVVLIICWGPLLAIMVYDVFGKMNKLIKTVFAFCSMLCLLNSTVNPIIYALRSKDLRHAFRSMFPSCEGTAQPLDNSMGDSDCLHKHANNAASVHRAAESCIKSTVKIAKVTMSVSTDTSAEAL
Experiment: Cannabinoid receptor [3H]CP-55,940 displacement binding assay, CB1
Settings: 1 h; 10 µM compound; CHO cell membranes, 2.5 nM radioligand; read-out: Displacement of [3H]CP-55,940 from CB1
Tag: condition met if measured inhibition at 10 µM is not below 40%, condition not met if it is.

Confirm if inhibition at 10 µM reported for the compound O=C1c2ccccc2N/C(=N/N=C/c2nc3ccccc3s2)[C@@H]2CCCN12 [Compound 4n] is 40% or above.
condition met

Confirm if inhibition at 10 µM reported for the compound Cn1cc(/C=N/N=C2/Nc3ccccc3C(=O)N3CCC[C@@H]23)c2ccccc21 [Compound 4o] is 40% or above.
condition not met

Confirm if inhibition at 10 µM reported for the compound O=C1c2ccc(Cl)cc2N/C(=N/N=C/c2cc3ccccc3s2)[C@@H]2CCCN12 [Compound 4k] is 40% or above.
condition met

Confirm if inhibition at 10 µM reported for the compound O=C1c2ccccc2N/C(=N/N=C/c2ccc[nH]2)[C@@H]2CCCN12 [Compound 4a] is 40% or above.
condition not met

Confirm if inhibition at 10 µM reported for the compound Nc1ncc(/C=N/N=C2/Nc3ccccc3C(=O)N3CCC[C@@H]23)s1 [Compound 4f] is 40% or above.
condition not met

Confirm if inhibition at 10 µM reported for the compound O=C1c2ccccc2N/C(=N/N=C/c2sc3ccccc3c2Cl)[C@@H]2CCCN12 [Compound 4m] is 40% or above.
condition not met

Confirm if inhibition at 10 µM reported for the compound Cc1ncc(/C=N/N=C2/Nc3ccccc3C(=O)N3CCC[C@@H]23)s1 [Compound 4d] is 40% or above.
condition not met

Confirm if inhibition at 10 µM reported for the compound O=C1c2cc(Br)ccc2N/C(=N/N=C/c2csc3ccccc23)[C@@H]2CCCN12 [Compound 4j] is 40% or above.
condition met

====

Assay: PK evaluation in CD-1 mice (plasma, brain, kidney, liver; i.v. and oral)
Type: in vivo
Settings: male, CD-1, mouse; oral 5 mg/kg, plasma
READOUT LABEL: AUC(0-inf)

// field: AUC(0-inf); key: O=C1c2ccc(Cl)cc2N/C(=N/N=C/c2cc3ccccc3s2)[C@@H]2CCCN12 ; value = 739 ng·h/mL

====

Test: PK evaluation in CD-1 mice (plasma, brain, kidney, liver; i.v. and oral)
Assay type: in vivo
Conditions: male, CD-1, mouse; intravenous 5 mg/kg, brain; read-out: Cmax or C0
READOUT LABEL: Cmax

// field: Cmax; key: O=C1c2ccc(Cl)cc2N/C(=N/N=C/c2cc3ccccc3s2)[C@@H]2CCCN12 ; value = 2260 ng/g

====

Experiment: PK evaluation in CD-1 mice (plasma, brain, kidney, liver; i.v. and oral)
Assay type: in vivo
Conditions: male, CD-1, mouse, kidney and plasma; intravenous 5 mg/kg; read-out: mean kidney to plasma ratio
READOUT LABEL: Kp

// field: Kp; key: O=C1c2ccc(Cl)cc2N/C(=N/N=C/c2cc3ccccc3s2)[C@@H]2CCCN12 ; value = 14.5

====

Assay: PK evaluation in CD-1 mice (plasma, brain, kidney, liver; i.v. and oral)
Type: in vivo
Settings: male, CD-1, mouse; oral vs intravenous 5 mg/kg, brain; read-out: F (apparent oral bioavailability)
READOUT LABEL: bioavailability (%)
Kindly answer with a numeric value in %, unit omitted.

// field: bioavailability; key: O=C1c2ccc(Cl)cc2N/C(=N/N=C/c2cc3ccccc3s2)[C@@H]2CCCN12 [Compound 4k] ; value = 42.5

====

Molecular target: human CB1 receptors (Homo sapiens, UniProt P21554)
Construct: expressed in transfected cells; host or cells: CHO cells
Assay: Cannabinoid receptor [3H]CP-55,940 displacement binding assay, CB1
Conditions: 1 h; 10 µM compound; CHO cell membranes, 2.5 nM radioligand; read-out: Displacement of [3H]CP-55,940 from CB1
Tag: TRUE if measured inhibition at 10 µM is not below 40%, FALSE if it is.

Confirm if inhibition at 10 µM reported for the compound O=C1c2ccccc2N/C(=N/N=C/C23CC4CC(CC(C4)C2)C3)[C@@H]2CCCN12 is 40% or above.
TRUE

Confirm if inhibition at 10 µM reported for the compound O=C1c2ccccc2N/C(=N/N=C/c2cc3ccccc3s2)[C@@H]2CCCN12 is 40% or above.
FALSE

Confirm if inhibition at 10 µM reported for the compound O=C1c2cc(Br)ccc2N/C(=N/N=C/c2cc3ccccc3s2)[C@@H]2CCCN12 is 40% or above.
TRUE

Confirm if inhibition at 10 µM reported for the compound Cn1ccnc1/C=N/N=C1/Nc2ccccc2C(=O)N2CCC[C@@H]12 is 40% or above.
FALSE

Confirm if inhibition at 10 µM reported for the compound Cc1c(/C=N/N=C2/Nc3ccccc3C(=O)N3CCC[C@@H]23)sc2ccccc12 is 40% or above.
TRUE

Confirm if inhibition at 10 µM reported for the compound O=C1c2ccccc2N/C(=N/N=C/c2cncs2)[C@@H]2CCCN12 is 40% or above.
FALSE

Reference source: paper PMC8778670
